Source: ChEMBL document CHEMBL1146380

test system: Sporothrix schenckii; assay: Antimicrobial activity against Sporothrix schenckii ATCC 1146 by broth microdilution method; assay type: functional
Metric: MIC (µg/mL)
Give your result in µg/mL as a bare value.

> print(dat)
                smiles.representation                target  reading.unit  recorded.measurement
1  O=C(NCCC1CCN(Cc2ccccc2)CC1)c1ccoc1  Sporothrix schenckii         µg/mL                    20

MIC on Sporothrix schenckii for `O=C(NCCCO)c1ccoc1` is 320

MIC on Sporothrix schenckii for `O=C(Nn1cnnc1)c1ccoc1` is 320

MIC on Sporothrix schenckii for `O=C(Nc1nc[nH]n1)c1ccoc1` is 160
